Test system: viable cells in culture
methodNotes: Cell viability assay (CellTiter-Glo Luminescent Cell Viability Assay, ATP quantitation, percent of vehicle control)
Average Cell Viability after 24 Hours (% DMSO) values, listed per item
Reply with the number, then its unit.

Cc1cc(C(=O)N/N=C/c2cc(Br)ccc2O)c(C)o1	59.52 % DMSO
Cc1cc(C)[n+]2nc3n(-c4ccccc4)c(C)cc(C)c-3c2n1	77.50 % DMSO
Cc1cc(=O)c2c(=O)n(-c3nc4ccccc4s3)[nH]c2[nH]1	75.47 % DMSO
CC1=NN(c2ccc(C)c(C)c2)C(=O)/C1=C\NNC(=O)c1ccccc1	67.60 % DMSO
CCC(C)NC(=S)Nc1ccc([N+](=O)[O-])cc1 (stereo not drawn)	92.06 % DMSO

Could you now consider this next compound?
Q: Would you kindly share the measured Average Cell Viability after 24 Hours (% DMSO) for NNc1ncnc2sc3c(c12)CCCC3 ?
Ans: 84.96 % DMSO

---

Tested on: viable cells in culture
methodNotes: Cell viability assay (CellTiter-Glo Luminescent Cell Viability Assay, ATP quantitation, percent of vehicle control)
We use 80 % DMSO as the dividing line for Average Cell Viability after 24 Hours (% DMSO): on or above the line is met, below is not met.

Some solved entries appear below for comparison.
O=C(COc1ccc(F)cc1)N/N=C/c1cccc2cccnc12	not met
COc1ccc(OCCCN2CCN(c3ccccc3OC)CC2)cc1	met
CS(=O)(=O)N1CCN(c2ccc(NC(=O)c3cccc(OCc4ccccc4)c3)cc2)CC1	met
O=C(Cn1c(=O)oc2ccccc21)Nc1cc(Cl)ccc1Cl	met
CSCCNC(=O)c1cc(-c2cccs2)on1	met
CC[C@@]1(C2O[C@@H](C3O[C@@](O)(CC)[C@H](C)C[C@@H]3C)C[C@@H]2C)CC[C@H]([C@]2(C)CCC3(C[C@H](O)[C@@H](C)[C@@H]([C@H](C)[C@@H](OC)[C@H](C)C(=O)O)O3)O2)O1 (stereo partly drawn)	not met
Brc1ccc(CSc2ccc(-c3ccccn3)nn2)cc1	not met
Oc1c(Br)cc(Br)c2cccnc12	not met
O=C(Nc1nc(-c2ccccn2)cs1)c1nc2ccccc2s1	not met
Cc1ccc(S(=O)(=O)Nc2ccc([N+](=O)[O-])cc2)cc1	met

Q: Does the reported Average Cell Viability after 24 Hours (% DMSO) for Cc1nn2c(=O)cc(-c3ccccc3)[nH]c2c1-c1ccccc1 fall at or above the 80 % DMSO mark?
Ans: not met

Q: And what about the compound C=CCNC(=O)c1cc(-c2cccs2)on1 ?
Ans: met

Q: And what about the compound CCCCN1C(C(=O)c2ccccc2)=C(OC(=O)C(C)C)c2ccccc2S1(=O)=O ?
Ans: not met

Q: And what about the compound Cc1ccc(NS(=O)(=O)c2ccc(NC(=O)C(c3ccccc3)c3ccccc3)cc2)cc1C ?
Ans: not met

Q: And what about the compound Cn1c(=O)c2c(nc(SCc3cc4c(cc3Cl)OCO4)n2C)n(C)c1=O ?
Ans: not met

---

System: viable cells in culture
methodNotes: Cell viability assay (CellTiter-Glo Luminescent Cell Viability Assay, ATP quantitation, percent of vehicle control)
Average Cell Viability after 24 Hours (% DMSO) values, listed per item
Use % DMSO as the unit, but write only the number.

O=C(NC(=S)Nc1cc(Cl)cc(Cl)c1)c1cccc(F)c1 [compound 1339]	68.94
CN(C(=O)c1cc2ccccc2oc1=O)C1(C)CCS(=O)(=O)C1 (stereo not drawn) [compound 1309]	119.29

Q: Would you kindly share the measured Average Cell Viability after 24 Hours (% DMSO) for O=c1c2c([nH]c3c(-c4ccc(Cl)cc4)cnn13)CCCC2 [compound 1159] ?
Ans: 55.24

Q: And what about the compound CCC(=O)NC(c1ccc(C)cc1)c1cc([N+](=O)[O-])c2cccnc2c1O (stereo not drawn) [compound 1049] ?
Ans: 65.63

Q: And what about the compound O=C(Nc1nc2ccc([N+](=O)[O-])cc2s1)c1cncc(Br)c1 [compound 1395] ?
Ans: 63.84

Q: And what about the compound CCCCC(=O)NC(c1ccc(OC)c(OC)c1)c1cc([N+](=O)[O-])c2cccnc2c1O (stereo not drawn) [compound 1053] ?
Ans: 59.77

Q: And what about the compound O=C(N/N=C/c1ccccc1O)/C(=C\c1cccs1)NC(=O)c1ccccc1 [compound 1293] ?
Ans: 89.97

Q: And what about the compound Cc1ccc(Nc2nc3nonc3nc2NC(C)(C)C)cc1C [compound 1229] ?
Ans: 79.23

Q: And what about the compound Cc1oc2cc(OCC(=O)OCc3ccccc3)ccc2c(=O)c1Oc1ccccc1 [compound 1402] ?
Ans: 86.55

---

Tested on: viable cells in culture
methodNotes: Cell viability assay (CellTiter-Glo Luminescent Cell Viability Assay, ATP quantitation, percent of vehicle control)
Average Cell Viability after 24 Hours (% DMSO) values, listed per item
Use % DMSO as the unit, but write only the number.

Cc1ccc(C)c(NC(=O)c2ccccc2NS(=O)(=O)c2cc([N+](=O)[O-])ccc2C)c1 [compound 1539]	65.11
COC(=O)c1cc(OC)c(OC)cc1NC(=S)N1CCN(C)CC1 [compound 1357]	95.29
CCOC(=O)c1nn(-c2ccccc2)c(=O)c2c(NC(=O)c3ccc4c(c3)OCO4)scc12 [compound 1298]	101.83

Could you now consider this next compound?
Q: Would you kindly share the measured Average Cell Viability after 24 Hours (% DMSO) for CCOC(=O)COc1ccc2c(C)cc(=O)oc2c1C [compound 1308] ?
Ans: 90.12

---

Average Cell Viability after 24 Hours (% DMSO) values, listed per item
Test system: viable cells in culture
methodNotes: Cell viability assay (CellTiter-Glo Luminescent Cell Viability Assay, ATP quantitation, percent of vehicle control)
Use % DMSO as the unit, but write only the number.

Some compounds with recorded Average Cell Viability after 24 Hours (% DMSO):
CCCC1=NN(c2ccc(Cl)cc2)C(=O)C1	66.57
Cc1cc(Br)ccc1NC(=O)Cn1ncc2c(=O)oc3ccccc3c21	101.34
Cc1cc(C2CCCCC2)n(O)c(=O)c1	67.25
O=C(NCCc1ccccn1)c1cc(-c2cccs2)on1	106.64
COc1ccccc1-n1c(=O)oc2ccc(Cl)cc2c1=O	80.60
COC(=O)CSC1=C(C#N)C(c2ccco2)C(C(=O)Nc2ccc(Cl)cc2)=C(C)N1 (centres unmarked)	57.47
CCC(=O)NC(c1ccc(OC)c(OC)c1)c1cc(Cl)c2cccnc2c1O (centres unmarked)	75.67
C=CCNC(=O)c1cc(-c2ccc(F)cc2)on1	87.44
CCOC(=O)c1nn(-c2ccccc2)c(=O)c2c(NC(=O)c3c(F)cccc3Cl)scc12	69.64
CCC(=O)NC(=S)Nc1ccccc1C#N	87.51

Q: Would you kindly share the measured Average Cell Viability after 24 Hours (% DMSO) for Cc1[nH]c2c(-c3ccc(Cl)cc3)cnn2c(=O)c1Cc1ccccc1 ?
Ans: 63.23

Q: And what about the compound O=C(NC(c1ccccc1)c1ccc(Br)cc1)c1cccc(F)c1 (centres unmarked) ?
Ans: 89.70

Q: And what about the compound Cc1ccc(NC(=O)NCc2ccccc2F)cc1C ?
Ans: 87.98

Q: And what about the compound CSc1nc2nc(C)c(C(C)=O)c(C)n2n1 ?
Ans: 109.24

Q: And what about the compound CC(=O)NC(c1ccco1)c1cc([N+](=O)[O-])c2cccnc2c1O (centres unmarked) ?
Ans: 83.39

Q: And what about the compound CCC(C)NC(=S)Nc1ccc(F)cc1 (centres unmarked) ?
Ans: 102.61

Q: And what about the compound Cc1ccc(NC(=O)CCC(=O)OCC(=O)c2ccc(Br)cc2)c(C)c1 ?
Ans: 71.31

Q: And what about the compound O=C(NC1CC1)c1cc(-c2cccs2)on1 ?
Ans: 70.93

Q: And what about the compound CC(=O)NC(c1ccccc1)c1cc([N+](=O)[O-])c2cccnc2c1O (centres unmarked) ?
Ans: 62.77

Q: And what about the compound CCCCOCCCNC(=O)c1cc(-c2cccs2)on1 ?
Ans: 102.58

---

Tested on: viable cells in culture
methodNotes: Cell viability assay (CellTiter-Glo Luminescent Cell Viability Assay, ATP quantitation, percent of vehicle control)
We use 70 % DMSO as the dividing line for Average Cell Viability after 24 Hours (% DMSO): on or above the line is 1, below is -1.

Some solved entries appear below for comparison.
N=c1ccn2c(n1)O[C@@H]1[C@@H](O)[C@H](CO)O[C@@H]12 [compound 1226]	1
Cc1ccnc(NC(c2cccc(Cl)c2)c2ccc3ccc(C)nc3c2O)c1 (stereo not drawn) [compound 1080]	1
O=C(NCCc1ccncc1)C(F)(F)F [compound 1356]	1
CC(C)C(=O)NC(c1ccc(C(C)C)cc1)c1cc([N+](=O)[O-])c2cccnc2c1O (stereo not drawn) [compound 1071]	1
CN1CCCC(OC(=O)COc2ccc(F)cc2)C1 (stereo not drawn) [compound 1389]	1

Q: Does the reported Average Cell Viability after 24 Hours (% DMSO) for CC1=NN(C(=O)c2cc(Br)ccc2O)C(O)(c2ccccc2)C1 (stereo not drawn) [compound 1319] fall at or above the 70 % DMSO mark?
Ans: -1

Q: And what about the compound COc1ccc(C(=O)NC(=S)Nc2ccc(Nc3ccccc3)cc2)cc1Br [compound 1417] ?
Ans: 1

Q: And what about the compound Cc1cc(CNC(=O)c2cc(-c3cccs3)on2)no1 [compound 1503] ?
Ans: 1

Q: And what about the compound Cc1cccc(NC(=O)c2c(NC(=O)c3ccncc3)sc3c2CCC(C(C)(C)C)C3)c1 (stereo not drawn) [compound 1233] ?
Ans: -1

Q: And what about the compound CCCCC(=O)NC(c1ccccc1OC)c1cc([N+](=O)[O-])c2cccnc2c1O (stereo not drawn) [compound 1027] ?
Ans: -1

Q: And what about the compound C/C(=N\NC(=O)c1c(O)ccc2ccccc12)c1ccccc1C(=O)O [compound 1531] ?
Ans: 1

Q: And what about the compound CCC(=O)NC(c1ccccc1Cl)c1cc(Cl)c2cccnc2c1O (stereo not drawn) [compound 1041] ?
Ans: 1

Q: And what about the compound O=[N+]([O-])c1ccc(NS(=O)(=O)c2cccc(C(F)(F)F)c2)cc1 [compound 1335] ?
Ans: 1

Q: And what about the compound CCOc1cccc(/C=N/NC(=O)CNc2ccc(C)cc2)c1O [compound 1526] ?
Ans: 1

Q: And what about the compound CCC(=O)Oc1cccc2ccc(/C=C/c3ccccc3Cl)nc12 [compound 1432] ?
Ans: 1

Q: And what about the compound Cc1nn2c(=O)cc(-c3ccc(F)cc3)[nH]c2c1-c1ccccc1 [compound 1169] ?
Ans: -1
